- protocol_description: qHTS assay to identify small molecule antagonists of the estrogen related receptor signaling pathway with the pleiotropic PPARgamma coactivator (PGC) from Tox21 10K library - cell viability counter screen (AID 1224840); also: nearly all actives have a fitted effect of over 40% in size
- conditions_used: PGC/ERR reporter cells viability, CellTiter-Fluor, 17.5 h; series mostly up to 92.4 µM
Results filed as inconclusive are left out. Calls of active or inactive are those of the source. Calls follow the shape of the dose curve; as a rule, active = well fitted cell-killing curve with a large enough effect in the repeat runs (not every such curve was filed as active); inconclusive = weak or mixed curves, or effect the other way; inactive = no such curve, though single readings can be large or run the other way.
Result category, one only: active, inactive

C1=CCC2CC=CC2C1 (centres undefined) ... inactive
CC[C@@H](CO)NCCN[C@@H](CC)CO ... inactive
O=C(O)c1ccc(O)cc1O ... inactive
CC(C)(C)C1(CCc2ccc(Cl)cc2)CO1 (centres undefined) ... inactive
CCCC(=O)OC(=O)CCC ... inactive
Cc1c[nH]c2ccccc12 ... inactive
COc1ccc2nc(S(=O)Cc3ncc(C)c(OC)c3C)[nH]c2c1 (centres undefined) ... inactive
CCC(=O)OCc1ccc(OC)cc1 ... inactive

Input: Lab log entry: CCCCOC(=O)CCCCC(=O)OCCCC — outcome as called in the assay?
Output: inactive

Input: # outcome recorded in this test, key = COc1ccc(C(=O)NCc2ccc(OCCN(C)C)cc2)cc1OC
Output: inactive

Input: # lookup: test call for CN1CCCN(C(c2ccccc2)c2ccc(Cl)cc2)CC1 (centres undefined)
Output: active

Input: Hi, do you know how CCCCCCCCCCCCCC(=O)OCC(O)CO (centres undefined) came out in this test?
Output: inactive

Input: Which outcome did this test record for the compound CC(CCc1ccc(O)cc1)NCCc1ccc(O)c(O)c1 (centres undefined) ?
Output: inactive

Input: Would you mind telling me which call this test gave O=C(O)c1cc(Cl)cc(Cl)c1O ?
Output: inactive

----------
- protocol_description: qHTS assay to test for compound auto fluorescence at 460 nm (blue) in HEK293 cells (AID 720678); also: % is scaled to controls: 0 for no effect and ±100 for the full control effect
- conditions_used: blue autofluorescence 405/460 nm; series mostly up to 91.3 µM
Activity calls are given as the source filed them. The call rests on the fitted dose curve; in most records, active means well fitted curve in the direction sought with a large enough effect in the repeat runs; inconclusive means weak or mixed curves; inactive means flat fitted curve, though single readings scatter.
parameter_measured: fluorescence, % of triamterene

COc1cc(NS(=O)(=O)c2ccc(N)cc2)nc(C)n1 ... inactive
O=C(O)CCS ... inactive
Cc1cc([N+](=O)[O-])ccc1N ... inactive
CCCCCCC(O)CCCCCCCCCCC(=O)OC (centres undefined) ... inactive
Cc1ccc(N(CC2=NCCN2)c2cccc(O)c2)cc1 ... inactive

Field: fluorescence, % of triamterene. Fill in for each record below.
1. O=C(O)c1ccc(O)cc1O
2. COc1cc(NC(C)CCCN)c2ncccc2c1 (centres undefined)
3. CC(C)(O)c1coc(S(=O)(=O)NC(=O)Nc2c3c(cc4c2CCC4)CCC3)c1
4. CCCCCCCCCCCC(=O)OCC(O)CO (centres undefined)

Output:
inactive
1.22% [at 18.6 µM] (inactive)
inactive
inactive

----------
- protocol_description: qHTS assay to identify small molecule agonists of the TGF-beta/Smad signaling pathway (AID 1346859); also: % is scaled to controls: 0 for no effect and ±100 for the full control effect
- conditions_used: SBE-bla HEK293T, TGF-beta/Smad beta-lactamase reporter, 5 h; series mostly up to 76.8 µM
Inconclusive results are not listed. Activity calls are given as the source filed them. The call rests on the fitted dose curve; in most records, active means well fitted activation curve with a large enough effect in the signal ratio in the repeat runs (not every such curve was filed as active); inconclusive means weak or mixed curves; inactive means flat fitted curve, though single readings scatter; the % refers to the signal ratio.
parameter_measured: activation

See these solved cases before continuing.
CC(=O)c1ccc[nH]1 ... inactive
CCCCCC ... inactive
C=C(C)C(=O)OCCC(F)(F)C(F)(F)C(F)(F)C(F)(F)C(F)(F)C(F)(F)F ... inactive
CCCCCc1ccco1 ... inactive

For each of the compounds below, state activation.
1. CCc1ccc(C)cc1
2. CC(O)Cn1cnc2c1c(=O)n(C)c(=O)n2C (stereo not given)
3. O=S(=O)(O)CO

Output:
["inactive", "inactive", "inactive"]
